Origin of measurements: ChEMBL document CHEMBL1268993

- TESTED SYSTEM: Mitogen-activated protein kinase 14 (Homo sapiens, UniProt Q16539)
- Sequence (Q16539 whole entry): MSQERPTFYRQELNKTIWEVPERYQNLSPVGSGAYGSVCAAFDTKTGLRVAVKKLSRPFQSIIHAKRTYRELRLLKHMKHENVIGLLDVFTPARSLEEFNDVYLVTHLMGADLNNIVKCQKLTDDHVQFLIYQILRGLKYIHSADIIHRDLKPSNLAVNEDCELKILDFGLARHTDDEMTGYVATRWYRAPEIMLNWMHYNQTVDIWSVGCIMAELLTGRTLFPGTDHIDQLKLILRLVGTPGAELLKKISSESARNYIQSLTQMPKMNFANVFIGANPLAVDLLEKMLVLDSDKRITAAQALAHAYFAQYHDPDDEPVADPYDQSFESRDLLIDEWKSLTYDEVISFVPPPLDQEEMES
- ASSAY INFO: Inhibition of p38alpha by immunosorbent based assay
pIC50: −log10 of the molar value.
Decision: pIC50 >= 7 yields true (1), all other cases yield false (0).

Reference set (3 entries):
- SMILES STRUCTURE: "CSc1nc(-c2ccc(F)cc2)c(-c2ccnc(NC(C)=O)c2)n1C1CC1"
  CLASS NAME: "false (0)"
- SMILES STRUCTURE: "CSc1nc(-c2ccc(F)cc2)c(-c2ccnc(NC(=O)c3ccc(C)c(F)c3)c2)[nH]1"
  CLASS NAME: "true (1)"
- SMILES STRUCTURE: "COc1ccc(/C=C/C(=O)Nc2cc(-c3c(-c4ccc(F)cc4)nc(SC)n3C)ccn2)c(OC)c1"
  CLASS NAME: "false (0)"

**Q:** Form field: pIC50 at least 7? Entry: CSc1nc(-c2ccc(F)cc2)c(-c2ccnc(NC(C)=O)c2)n1CCCC(=O)O
**A:** false (0)

---

- TESTED SYSTEM: Mitogen-activated protein kinase 14 (Homo sapiens, UniProt Q16539)
- ASSAY INFO: Inhibition of p38alpha by immunosorbent based assay
As shown below, each of these molecules has a reported IC50 value.
Numbers only here, please. The scale is nM.

Solved cases (3 shown):
- SMILES STRUCTURE: "CSc1nc(-c2ccc(F)cc2)c(-c2ccnc(NC(=O)/C=C/c3c(Cl)cccc3Cl)c2)[nH]1"
  UNITS LABEL: "nM"
  IC50: 3
- SMILES STRUCTURE: "CCn1c(SC)nc(-c2ccc(F)cc2)c1-c1ccnc(NC(=O)/C=C/c2ccc(OC)cc2OC)c1"
  UNITS LABEL: "nM"
  IC50: 38
- SMILES STRUCTURE: "CSc1nc(-c2ccc(F)cc2)c(-c2ccnc(NC(C)=O)c2)n1C(CO)CO"
  UNITS LABEL: "nM"
  IC50: 6280

**Q:** Requested field: IC50. Item: CSc1nc(-c2ccnc(NC(=O)Cc3ccc(F)cc3)c2)c(-c2ccc(F)cc2)[nH]1
**A:** 9

**Q:** Requested field: IC50. Item: CSc1nc(-c2ccc(F)cc2)c(-c2ccnc(NC(=O)Cc3ccc(F)cc3)c2)n1C
**A:** 130

---

- TESTED SYSTEM: Mitogen-activated protein kinase 14 (Homo sapiens)
- ASSAY INFO: Inhibition of p38alpha by immunosorbent based assay
ASSAY READOUT: log10 of IC50 (log10 of the value in nM)
Answers are given as log10 of IC50 in nM.

Solved cases (5 shown):
- SMILES STRUCTURE: "CSc1nc(-c2ccc(F)cc2)c(-c2ccnc(NC(=O)/C(F)=C/c3ccccc3)c2)[nH]1"
  ASSAY READOUT: "log10 of IC50"
  RECORDED VALUE: 1.43
- SMILES STRUCTURE: "CSc1nc(-c2ccc(F)cc2)c(-c2ccnc(NC(C)=O)c2)n1CCC(=O)N1CCOCC1"
  ASSAY READOUT: "log10 of IC50"
  RECORDED VALUE: 3.20
- SMILES STRUCTURE: "CSc1nc(-c2ccc(F)cc2)c(-c2ccnc(NC(=O)C3=Cc4ccccc4OC3)c2)[nH]1"
  ASSAY READOUT: "log10 of IC50"
  RECORDED VALUE: 1.43
- SMILES STRUCTURE: "CSc1nc(-c2ccc(F)cc2)c(-c2ccnc(NC(C)=O)c2)n1[C@H]1CC[C@H](O)CC1"
  ASSAY READOUT: "log10 of IC50"
  RECORDED VALUE: 2.51
- SMILES STRUCTURE: "COCCn1c(SC)nc(-c2ccc(F)cc2)c1-c1ccnc(NC(=O)CC(F)(F)F)c1"
  ASSAY READOUT: "log10 of IC50"
  RECORDED VALUE: 2.69

**Q:** Requested field: log10 of IC50. Item: CCn1c(SC)nc(-c2ccc(F)cc2)c1-c1ccnc(NC(=O)/C=C/c2ccc(OC)cc2)c1
**A:** 1.88
